Where these numbers come from: patent US20260232812A1

The compounds listed here are annotated with their Dmax.
tgt: BRD4 (Homo sapiens)
Construct: HEK293 containing a HiBit insertion for BRD4; endogenous in cells; host or cells: HEK293 with a HiBiT insertion for BRD4
protocol notes: Assay 1 - Degradation of HiBit-BRD4 in HEK293
Format: cell-based
condition description: HiBit-BRD4 in HEK293, 6 h treatment
Experimental: 1.1 Assay 1-Degradation of HiBit-BRD4 in HEK293 HEK293 containing a HiBit insertion for BRD4 were plated in 384-well tissue culture plates at a density of 8×10^4 per well in a volume of 36 μL and incubated overnight at 37° C. and 5% CO2. Wells were treated with test compounds for 6 h prior to addition of the NanoLuc substrate and reading on a […]. Degradation data was plotted and analysed using […] (Graphpad).

[ask] Request the reported Dmax associated with COc1ccc([C@@H]2CN(C(=O)/C(C#N)=C/C(C)(C)C)C[C@H]2C(=O)NCCOCCOCCOCCOCCOCCNC(=O)c2ccc(-c3ccc4c(c3)[C@H](Nc3ccc(Cl)cc3)C[C@H](C)N4C(C)=O)cc2)cc1 [Example 15aa]
[reply] ≥ 70%

[ask] Request the reported Dmax associated with CC(=O)N1c2ccc(-c3ccc(C(=O)NCCOCCOCCOCCOCCOCCNC(=O)[C@@H]4CN(C(=O)/C(C#N)=C/c5ccn(C)n5)C[C@H]4CC(C)C)cc3)cc2[C@H](Nc2ccc(Cl)cc2)C[C@@H]1C [Example 15m]
[reply] 50 to 70%

[ask] Request the reported Dmax associated with CC(=O)N1c2ccc(-c3ccc(C(=O)NCCOCCOCCOCCOCCOCCNC(=O)[C@@H]4CN(C(=O)/C(C#N)=C/c5ccn(C)n5)C[C@H]4c4cccc(C)c4)cc3)cc2[C@H](Nc2ccc(Cl)cc2)C[C@@H]1C [Example 15al]
[reply] ≥ 70%

[ask] Request the reported Dmax associated with CC(=O)N1c2ccc(-c3ccc(C(=O)NCCOCCOCCOCCOCCOCCNC(=O)[C@@H]4CN(C(=O)/C(C#N)=C/C(C)(C)CN5CCOCC5)C[C@H]4C4CCCCC4)cc3)cc2[C@H](Nc2ccc(Cl)cc2)C[C@@H]1C [Example 15t]
[reply] ≥ 70%
